Property Label: pKi
pKi here: minus log base 10 of the concentration, concentration in moles per litre.

Q: State pKi on Coagulation factor X (Homo sapiens, UniProt P00742). Entry: N=C(N)c1ccc2[nH]c(-c3cccc(-c4cc(CNC(N)=O)ccc4O)c3O)nc2c1
Sequence (P00742 41-179 limits assumed): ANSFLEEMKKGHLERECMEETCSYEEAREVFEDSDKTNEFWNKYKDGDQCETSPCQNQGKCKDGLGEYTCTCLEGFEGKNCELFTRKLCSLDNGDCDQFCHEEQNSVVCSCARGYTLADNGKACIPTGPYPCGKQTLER
Sequence (P00742 235-488 limits assumed): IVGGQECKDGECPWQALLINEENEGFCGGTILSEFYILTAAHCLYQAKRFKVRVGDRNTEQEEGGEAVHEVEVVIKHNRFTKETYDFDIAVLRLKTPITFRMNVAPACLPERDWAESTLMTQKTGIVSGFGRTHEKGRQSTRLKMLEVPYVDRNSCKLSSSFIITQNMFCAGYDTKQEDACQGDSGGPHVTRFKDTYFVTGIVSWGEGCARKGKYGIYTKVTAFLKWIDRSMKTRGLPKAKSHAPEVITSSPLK
Result: 5.57

Cited source for all entries: ChEMBL document CHEMBL1146904
